Molecular target: MKNK1 (Homo sapiens, UniProt Q9BUB5, T385D)
Construct: GST (N); purchased Carna Biosciences 02-145; host or cells: insect cells (baculovirus expression system)
Sequence (Q9BUB5 1-424 isoform Q9BUB5-2 T344D): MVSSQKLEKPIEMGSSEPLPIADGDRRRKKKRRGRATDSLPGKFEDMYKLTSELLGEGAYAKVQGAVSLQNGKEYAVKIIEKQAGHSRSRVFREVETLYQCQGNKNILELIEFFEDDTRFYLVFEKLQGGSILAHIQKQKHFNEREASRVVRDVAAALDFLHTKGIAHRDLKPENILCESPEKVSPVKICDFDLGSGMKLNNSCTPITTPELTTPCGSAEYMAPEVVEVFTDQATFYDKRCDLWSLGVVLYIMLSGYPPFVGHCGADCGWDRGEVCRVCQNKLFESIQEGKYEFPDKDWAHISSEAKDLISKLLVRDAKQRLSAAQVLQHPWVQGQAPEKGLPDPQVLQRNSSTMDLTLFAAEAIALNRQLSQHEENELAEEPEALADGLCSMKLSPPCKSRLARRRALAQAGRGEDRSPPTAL
Test: MKNK1 kinase high ATP assay (TR-FRET-based)
Assay type: biochemical
Conditions: Table 2a; 2 mM ATP, 15 min preincubation
Assign IC50 to each entry below.
Report the value in nM with no unit label.

Form field: reported IC50 of O=C1NC(COc2ccc3ncc(-c4cc5ccccc5o4)n3n2)CO1 (stereo not drawn)
8.8

Form field: reported IC50 of CCC(=O)N1CCC[C@H]1CCOc1ccc2ncc(-c3cc4ccccc4o3)n2n1
1.7

Form field: reported IC50 of O=C(c1cccs1)N1CCC[C@H]1CCOc1ccc2ncc(-c3cc4ccccc4o3)n2n1
1.3

###

Assign pIC50 to each entry below.
Target: MKNK1 (Homo sapiens, UniProt Q9BUB5, T385D)
Construct: GST (N); purchased Carna Biosciences 02-145; host or cells: insect cells (baculovirus expression system)
Assay: MKNK1 kinase assay (MKNK1 TR-FRET assay)
Format: biochemical
Conditions: Table 1c; 10 μM ATP, 15 min preincubation
Please express pIC50 as -log10 of the molar concentration.

Form field: reported pIC50 of CC(C)(C)N1CCN(c2nccc3oc(-c4cnc5ccc(OCCCS(C)(=O)=O)nn45)cc23)CC1
7.92

Form field: reported pIC50 of C[C@@H]1COCCN1c1nccc2oc(-c3cnc4ccc(OC[C@@H](C)N)nn34)cc12
8.17

Form field: reported pIC50 of CC1(C)CN(c2nccc3oc(-c4cnc5ccc(OC[C@H]6CCC(=O)N6)nn45)cc23)CCN1
8.48

Form field: reported pIC50 of C[C@H](N)COc1ccc2ncc(-c3cc4c(N(C)CCCN5CCCC5)nccc4o3)n2n1
8.07

###

Target: MKNK1 (Homo sapiens, UniProt Q9BUB5, T385D)
Construct: GST (N); purchased Carna Biosciences 02-145; host or cells: insect cells (baculovirus expression system)
Assay: MKNK1 kinase high ATP assay (TR-FRET-based)
Format: biochemical
Details: Table 2c; 2 mM ATP, 15 min preincubation
Rule: IC50 below 10 nM gives condition met. Equal to or above 10 nM gives condition not met.

Find out if reported IC50 for C[C@H](N)COc1ccc2ncc(-c3cc4c(N5CCOC[C@@H]5C)nccc4o3)n2n1 [III-28] is less than 10 nM
condition met

Find out if reported IC50 for C[C@H](N)COc1ccc2ncc(-c3cc4c(N(C)CCCN5CCCC5)nccc4o3)n2n1 [III-12] is less than 10 nM
condition not met

Find out if reported IC50 for C[C@H]1COCCN1c1nccc2oc(-c3cnc4ccc(OC[C@@H]5CCC(=O)N5)nn34)cc12 [III-87] is less than 10 nM
condition met

Find out if reported IC50 for CCN(CCOC)c1nccc2oc(-c3cnc4ccc(O[C@H]5Cc6ccccc6[C@@H]5N)nn34)cc12 [III-111] is less than 10 nM
condition not met

Find out if reported IC50 for CC(C)(C)N1CCN(c2nccc3oc(-c4cnc5ccc(OC[C@H]6CCC(=O)N6)nn45)cc23)CC1 [III-63] is less than 10 nM
condition not met

Find out if reported IC50 for C[C@H](N)COc1ccc2ncc(-c3cc4c(N5CCN(C(C)(C)C)CC5)nccc4o3)n2n1 [III-116] is less than 10 nM
condition not met

Find out if reported IC50 for N[C@H]1C[C@H](Oc2ccc3ncc(-c4cc5c(N6CCC[C@@H]6CO)nccc5o4)n3n2)C1 [III-102] is less than 10 nM
condition not met

Find out if reported IC50 for COc1ccc2ncc(-c3cc4c(N5CCOC[C@H]5C)nccc4o3)n2n1 [III-92] is less than 10 nM
condition met

Find out if reported IC50 for C[C@@H](N)COc1ccc2ncc(-c3cc4c(N5CCC(CO)CC5)nccc4o3)n2n1 [III-2] is less than 10 nM
condition met

Find out if reported IC50 for CC1(C)CN(c2nccc3oc(-c4cnc5ccc(OCC(F)(F)F)nn45)cc23)CCN1 [III-126] is less than 10 nM
condition met

Find out if reported IC50 for CC(C)(C)OC(=O)N1CCN(c2nccc3oc(-c4cnc5ccc(OC[C@H]6CCC(=O)N6)nn45)cc23)CC1 [III-70] is less than 10 nM
condition not met

Find out if reported IC50 for C[C@@H]1CN(c2nccc3oc(-c4cnc5ccc(O[C@H]6C[C@H](N)C6)nn45)cc23)CCO1 [III-122] is less than 10 nM
condition not met

Find out if reported IC50 for C[C@H](N)COc1ccc2ncc(-c3cc4c(N5C[C@@H](C)O[C@@H](C)C5)nccc4o3)n2n1 [III-19] is less than 10 nM
condition not met

Find out if reported IC50 for C[C@@H](N)COc1ccc2ncc(-c3cc4c(N5CCOCC5)nccc4o3)n2n1 [III-1] is less than 10 nM
condition not met

Find out if reported IC50 for C[C@H](N)COc1ccc2ncc(-c3cc4c(N5CC[C@H](N(C)C)C5)nccc4o3)n2n1 [III-115] is less than 10 nM
condition not met

Find out if reported IC50 for COC[C@H]1CCCN1c1nccc2oc(-c3cnc4ccc(O[C@H](C)CN)nn34)cc12 [III-31] is less than 10 nM
condition met

Find out if reported IC50 for C[C@H]1CN(c2nccc3oc(-c4cnc5ccc(OCC(F)(F)F)nn45)cc23)CCN1 [III-145] is less than 10 nM
condition not met

Find out if reported IC50 for C[C@H](N)COc1ccc2ncc(-c3cc4c(N5CCOC(C)(C)C5)nccc4o3)n2n1 [III-128] is less than 10 nM
condition not met

Find out if reported IC50 for CCN(CCOC)c1nccc2oc(-c3cnc4ccc(OC[C@H]5CNCC(=O)N5)nn34)cc12 [III-90] is less than 10 nM
condition met

Find out if reported IC50 for C[C@@H]1CN(c2nccc3oc(-c4cnc5ccc(OC[C@@H]6CCC(=O)N6)nn45)cc23)CCO1 [III-125] is less than 10 nM
condition met

Find out if reported IC50 for C[C@@H]1CN(c2nccc3oc(-c4cnc5ccc(OCCCS(C)(=O)=O)nn45)cc23)C[C@H](C)O1 [III-53] is less than 10 nM
condition not met

Find out if reported IC50 for C[C@H](N)COc1ccc2ncc(-c3cc4c(N5CC[C@@H](N(C)C)C5)nccc4o3)n2n1 [III-11] is less than 10 nM
condition not met

Find out if reported IC50 for C[C@@H]1CN(c2nccc3oc(-c4cnc5ccc(OC[C@H]6CCC(=O)N6)nn45)cc23)CCO1 [III-118] is less than 10 nM
condition met

Find out if reported IC50 for C[C@H]1CN(c2nccc3oc(-c4cnc5ccc(OCCCS(C)(=O)=O)nn45)cc23)CCO1 [III-60] is less than 10 nM
condition met

Find out if reported IC50 for CCN(CCOC(C)(C)C)c1nccc2oc(-c3cnc4ccc(O[C@H]5C[C@H](N)C5)nn34)cc12 [III-108] is less than 10 nM
condition met

Find out if reported IC50 for CCN(CCOC)c1nccc2oc(-c3cnc4ccc(OC[C@@H]5CCCN5)nn34)cc12 [III-139] is less than 10 nM
condition met

Find out if reported IC50 for C[C@H](N)COc1ccc2ncc(-c3cc4c(N(C)CCCO)nccc4o3)n2n1 [III-20] is less than 10 nM
condition not met

Find out if reported IC50 for CS(=O)(=O)CCCOc1ccc2ncc(-c3cc4c(N5CCN(c6ccccc6)CC5)nccc4o3)n2n1 [III-56] is less than 10 nM
condition not met

Find out if reported IC50 for C[C@H](N)COc1ccc2ncc(-c3cc4c(N5CCN(C)CC5)nccc4o3)n2n1 [III-8] is less than 10 nM
condition not met

Find out if reported IC50 for COc1ccc2ncc(-c3cc4c(N5CCOC[C@@H]5C)nccc4o3)n2n1 [III-93] is less than 10 nM
condition met

Find out if reported IC50 for CC(=O)N1CCN(c2nccc3oc(-c4cnc5ccc(OCCCS(C)(=O)=O)nn45)cc23)CC1 [III-51] is less than 10 nM
condition not met

Find out if reported IC50 for CCN(CCOC)c1nccc2oc(-c3cnc4ccc(OC[C@H]5CCC(=O)N5)nn34)cc12 [III-69] is less than 10 nM
condition met

###

Target: MKNK1 (Homo sapiens, UniProt Q9BUB5, T385D)
Construct: GST (N); purchased Carna Biosciences 02-145; host or cells: insect cells (baculovirus expression system)
Test: MKNK1 kinase assay (MKNK1 TR-FRET assay)
Assay type: biochemical
Details: Table 1b; 10 μM ATP, 15 min preincubation
Rule: IC50 below 7 nM gives Criterion met. Equal to or above 7 nM gives Criterion not met.

Find out if reported IC50 for COC[C@H]1CCCN1c1cccc2oc(-c3cnc4ccc(OC[C@H]5CNCCO5)nn34)cc12 is less than 7 nM
Criterion met

Find out if reported IC50 for COc1ccc2ncc(-c3cc4c(N5CCN(c6ccccc6)CC5)cccc4o3)n2n1 is less than 7 nM
Criterion not met

Find out if reported IC50 for C[C@@H]1COCCN1c1cccc2oc(-c3cnc4ccc(OC[C@@H]5CCC(=O)N5)nn34)cc12 is less than 7 nM
Criterion met

Find out if reported IC50 for COC[C@H]1CCCN1c1cccc2oc(-c3cnc4ccc(OC[C@H](C)N)nn34)cc12 is less than 7 nM
Criterion met

Find out if reported IC50 for COc1ccc2ncc(-c3cc4c(N5CCNC[C@H]5C)cccc4o3)n2n1 is less than 7 nM
Criterion met

Find out if reported IC50 for C[C@H](N)COc1ccc2ncc(-c3cc4c(N5CCOC[C@H]5C)cccc4o3)n2n1 is less than 7 nM
Criterion not met

Find out if reported IC50 for COC[C@H]1CCCN1c1cccc2oc(-c3cnc4ccc(OC[C@H]5CCC(=O)N5)nn34)cc12 is less than 7 nM
Criterion met

src = patent US20160287589A1
